Below, each of the substances is paired with its reported IGFBP1 mRNA value.
# Tested on: IGFBP-1
# test description: IGFBP-1 mRNA expression in HepG2 cells
# Format: cell-based, human
# run parameters: HepG2 cells, Experiment 1, basal (no insulin), four hours; UTC = 100
In the oligonucleotide strings, read from the 5' end, every base follows the letter of its sugar. An asterisk marks phosphorothioate; unmarked linkages are phosphodiester. Other units and linkages are bracketed, terminal groups are in braces. A string of capitals states the bases alone. e = 2'-O-(2-methoxyethyl) (MOE); [5mC] = 5-methylcytosine
The response must contain the number and no unit.

// returns IGFBP1 mRNA for 327893 (antisense eA*eA*e[5mC]*e[5mC]*eA*e[5mC]*eA*e[5mC]*eA*eA*e[5mC]*e[5mC]*eT*eA*e[5mC]*eT*eA*e[5mC]*e[5mC]*eT*e[5mC]*eA) [compound 327893] with IGFBP-1; value = 107

Reading of IGFBP1 mRNA for 327899 (antisense e[5mC]*eA*eG*eT*eG*eA*eA*eT*eT*e[5mC]*eT*eA*e[5mC]*e[5mC]*eA*eG*eT*eG*e[5mC]*e[5mC]*eA*eT*eA) [compound 327899] with IGFBP-1: 105

====

# Test system: IGFBP-1
# test description: IGFBP-1 mRNA expression in HepG2 cells
# Type: cell-based, human
# run parameters: HepG2 cells, Experiment 1, basal (no insulin), four hours; UTC = 100
In the oligonucleotide strings, read from the 5' end, every base follows the letter of its sugar. An asterisk marks phosphorothioate; unmarked linkages are phosphodiester. Other units and linkages are bracketed, terminal groups are in braces. A string of capitals states the bases alone. e = 2'-O-(2-methoxyethyl) (MOE); [5mC] = 5-methylcytosine
parameter measured: IGFBP1 mRNA
Returns: the value as a bare number; no unit string appended.

// solved cases for IGFBP1 mRNA follow
substance | parameter measured | numeric value
327873 (antisense e[5mC]*eT*eA*e[5mC]*e[5mC]*eA*eT*eA*eG*eG*eG*eT*eA*eA*eA*eA*e[5mC]*e[5mC]*eA*e[5mC]*eT) [compound 327873] | IGFBP1 mRNA | 108
341808 (antisense GAACUGCCUUUCUCUCCA; all 2'-MOE, all phosphorothioate, methylation of C and T or U not given here) [compound 341808] | IGFBP1 mRNA | 113
327885 (antisense eA*e[5mC]*eT*eA*e[5mC]*e[5mC]*eT*eG*e[5mC]*eA*e[5mC]*eT*eG*eT*eA*eA*eG*e[5mC]*eA*e[5mC]*eT*eT*eT*eG) [compound 327885] | IGFBP1 mRNA | 161
341801 (antisense CCUAUCUCCCCUCUGGACC; all 2'-MOE, all phosphorothioate, methylation of C and T or U not given here) [compound 341801] | IGFBP1 mRNA | 99

Sure, the documented IGFBP1 mRNA for 327949 (antisense e[5mC]*eA*e[5mC]*eA*eA*eA*eT*eT*e[5mC]*eG*eG*eA*eT*e[5mC]*eT*eA*e[5mC]*eA*eG*eG*eG*eT*eA) [compound 327949] is 112

# IGFBP1 mRNA (substance: 327916 (antisense eT*eG*eG*e[5mC]*eA*eT*eT*e[5mC]*eA*e[5mC]*e[5mC]*eG*e[5mC]*eG*eT*eG*e[5mC]*e[5mC]*eT*eT*eA*eA) [compound 327916] ) is 102

IGFBP1 mRNA in this record for 327918 (antisense e[5mC]*eT*eA*eG*eT*eA*e[5mC]*eA*eT*e[5mC]*eA*eT*e[5mC]*eT*eA*eT*eA*e[5mC]*eT*eG*eT*eA) [compound 327918] : 95

According to the records, this substance 327950 (antisense eT*e[5mC]*eA*eG*eT*eT*eT*eT*eG*e[5mC]*eA*eT*eA*eG*eA*eT*eT*eT*eG*e[5mC]*eA*e[5mC]*eA) [compound 327950] displays IGFBP1 mRNA of 109

Measured IGFBP1 mRNA of 327923 (antisense eG*eA*eA*eA*eG*eA*eG*eA*e[5mC]*e[5mC]*eG*eG*eT*eT*e[5mC]*eA*e[5mC]*eT*eG*eT*eG*eA) [compound 327923] : 116

The substance listed as 341802 (antisense AGCUGCUUUUGGGAUUCCGUUG; all 2'-MOE, all phosphorothioate, methylation of C and T or U not given here) [compound 341802] has a reported IGFBP1 mRNA of 186

====

# Test system: BJ, B16-F10, T47D, T47Dp53 and HeLa cells
# test description: Cell cycle assay (propidium iodide flow cytometry), cell line panel
# Assay type: cell-based
# run parameters: 150 nM oligomeric compound, 4.5 μg/ml LIPOFECTIN, after 72 hours, propidium iodide flow cytometry
In the oligonucleotide strings, read from the 5' end, every base follows the letter of its sugar. An asterisk marks phosphorothioate; unmarked linkages are phosphodiester. Other units and linkages are bracketed, terminal groups are in braces. A string of capitals states the bases alone. e = 2'-O-(2-methoxyethyl) (MOE); [5mC] = 5-methylcytosine; d = 2'-deoxy (DNA)
parameter measured: G2/M (percentage of cells in phase of the cell cycle) (%)
The reply should be a number in %, with the unit left off.

Lookup result for 328419 (antisense eT*eG*eT*eT*eG*d[5mC]*d[5mC]*dT*dA*dA*d[5mC]*dG*dA*dA*d[5mC]*eA*e[5mC]*eA*eG*eA) [compound 328419] ; measured G2/M (percentage of cells in phase of the cell cycle): 16.3

Documented G2/M (percentage of cells in phase of the cell cycle) of 327903 (antisense eA*eA*e[5mC]*eT*eA*eT*eA*e[5mC]*eA*eA*e[5mC]*e[5mC]*eT*eA*e[5mC]*eT*eA*e[5mC]*e[5mC]*eT*e[5mC]*eA) [compound 327903] : 15.4

Recorded result, 327934 (antisense eG*eG*eT*eA*e[5mC]*eA*eA*eT*e[5mC]*eA*eA*e[5mC]*eG*eG*eT*e[5mC]*eG*eA*eT*eG*eG*eT) [compound 327934] , G2/M (percentage of cells in phase of the cell cycle): 17.4

The recorded G2/M (percentage of cells in phase of the cell cycle) for 327911 (antisense eG*e[5mC]*eT*eA*e[5mC]*e[5mC]*eT*eG*e[5mC]*eA*e[5mC]*eT*eG*eT*eA*eA*eG*e[5mC]*eA*e[5mC]*eT*eT*eT*eT) [compound 327911] is 20

For this substance ( 327901 (antisense eT*eG*eA*eG*e[5mC]*eT*eA*e[5mC]*eA*eG*eT*eG*e[5mC]*eT*eT*e[5mC]*eA*eT*e[5mC]*eT*e[5mC]*eA) [compound 327901] ), measured G2/M (percentage of cells in phase of the cell cycle) is 20.3

====

# Tested on: PPARγ
# test description: PPARγ mRNA expression in adipocytes (real-time PCR)
# Type: cell-based, human
# run parameters: adipocytes, 250 nM oligomeric compound, day nine post-transfection, relative to control (1.0); Table 16
In the oligonucleotide strings, read from the 5' end, every base follows the letter of its sugar. An asterisk marks phosphorothioate; unmarked linkages are phosphodiester. Other units and linkages are bracketed, terminal groups are in braces. A string of capitals states the bases alone. e = 2'-O-(2-methoxyethyl) (MOE); [5mC] = 5-methylcytosine
Outcome label depends on PPAR gamma (mRNA expression) relative to 0.8: at/above gives t, below gives f.

Please review the entries below; each comes with its answer.
substance | cat
327888 (antisense eA*eA*eT*eG*e[5mC]*e[5mC]*e[5mC]*e[5mC]*eT*eA*eA*eA*eA*eA*eT*e[5mC]*e[5mC]*eT*eT*eA*eT) [compound 327888] | f
327903 (antisense eA*eA*e[5mC]*eT*eA*eT*eA*e[5mC]*eA*eA*e[5mC]*e[5mC]*eT*eA*e[5mC]*eT*eA*e[5mC]*e[5mC]*eT*e[5mC]*eA) [compound 327903] | t

Check if PPAR gamma (mRNA expression) >= 0.8 (inclusive). Item: 327925 (antisense eT*eA*eG*e[5mC]*eT*eG*eG*eT*eT*eG*eA*eA*eG*eG*eG*eG*eA*e[5mC]*e[5mC]*eA*eA) [compound 327925]
t

hey, is PPAR gamma (mRNA expression) for this one >= 0.8? 327901 (antisense eT*eG*eA*eG*e[5mC]*eT*eA*e[5mC]*eA*eG*eT*eG*e[5mC]*eT*eT*e[5mC]*eA*eT*e[5mC]*eT*e[5mC]*eA) [compound 327901]
f

====

Measured IGFBP1 mRNA accompanies every entry in the list below.
# Test system: IGFBP-1
# test description: IGFBP-1 mRNA expression in HepG2 cells
# Assay type: cell-based, human
# run parameters: HepG2 cells, Experiment 1, basal (no insulin), four hours; UTC = 100
In the oligonucleotide strings, read from the 5' end, every base follows the letter of its sugar. An asterisk marks phosphorothioate; unmarked linkages are phosphodiester. Other units and linkages are bracketed, terminal groups are in braces. A string of capitals states the bases alone. e = 2'-O-(2-methoxyethyl) (MOE); [5mC] = 5-methylcytosine
Form: value (number only, do not type unit).

Guide cases for IGFBP1 mRNA, answers given:
substance | numeric value
327911 (antisense eG*e[5mC]*eT*eA*e[5mC]*e[5mC]*eT*eG*e[5mC]*eA*e[5mC]*eT*eG*eT*eA*eA*eG*e[5mC]*eA*e[5mC]*eT*eT*eT*eT) [compound 327911] | 157
327897 (antisense eA*e[5mC]*eA*eG*eG*e[5mC]*e[5mC]*eG*eG*eG*eA*e[5mC]*eA*eA*eG*eT*eG*e[5mC]*eA*eA*eT*eA) [compound 327897] | 163

Field IGFBP1 mRNA (IGFBP-1), entry 327959 (antisense e[5mC]*eA*eG*e[5mC]*e[5mC]*eG*e[5mC]*eT*eG*eT*e[5mC]*eA*e[5mC]*eA*e[5mC]*eG*e[5mC]*eA*e[5mC]*eA*eG) [compound 327959] : 124
